- target-desc: Muscarinic acetylcholine receptor M4 (Homo sapiens) (UniProt P08173)
- Sequence (P08173 whole entry, looked up): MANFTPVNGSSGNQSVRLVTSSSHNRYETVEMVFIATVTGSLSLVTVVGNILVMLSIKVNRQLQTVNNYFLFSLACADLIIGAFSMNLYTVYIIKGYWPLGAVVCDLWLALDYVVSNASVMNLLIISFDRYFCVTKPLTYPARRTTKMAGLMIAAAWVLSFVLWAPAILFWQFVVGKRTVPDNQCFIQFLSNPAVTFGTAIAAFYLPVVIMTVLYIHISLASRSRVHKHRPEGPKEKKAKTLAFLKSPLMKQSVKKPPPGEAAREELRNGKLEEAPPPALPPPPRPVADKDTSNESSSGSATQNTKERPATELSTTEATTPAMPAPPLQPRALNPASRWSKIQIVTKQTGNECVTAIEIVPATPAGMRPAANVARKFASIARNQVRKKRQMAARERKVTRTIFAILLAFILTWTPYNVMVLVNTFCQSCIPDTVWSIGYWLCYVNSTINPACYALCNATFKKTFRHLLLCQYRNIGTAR
- assay-comment: M4-linked GIRK flux change, two-sided – cell-based, HEK293 M4/GIRK, thallium flux, BTC-AM, M4 allosteric agonist project, primary screen (AID 625);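 also: thallium influx through GIRK channels coupled to M4 in HEK293 cells with BTC-AM dye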
- reported-conditions: at 10 µM, actives lie on both sides
The source made the active and inactive calls.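 The calls were made as follows: active = fluorescence slope after compound addition differing from the mean of all tested samples at 99.7% confidence, mostly higher but some lower; inactive = the rest.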
Select the correct class. Options are 1.0 for active, 0.0 for inactive and nothing else.

Problem: Assay outcome for CCOC(=O)Nc1ccc(OC)cc1S(=O)(=O)N1CCCCC1 : what was it?
Result: 0.0

Problem: // query: CC(=O)N1C(=O)C2(C(C#N)=C(N)Oc3cc(C)oc(=O)c32)c2ccccc21 (stereo not drawn)
Result: 0.0

Problem: And for O=C(c1cc(-c2ccco2)nn1-c1cccc(Cl)c1)N1CCCCC1 ?
Result: 0.0

Problem: Lookup C[C@H](NC(=O)OC(C)(C)C)C(=O)NCC1CCC(C(=O)O)CC1 (stereo partly drawn)
Result: 0.0

Problem: And O=C(CCNC(=O)Cn1ccc2ccccc2c1=O)NCCN1CCc2ccccc2C1 ?
Result: 0.0

Problem: Quick one: CCOC(=O)c1c(C)[nH]c(C=Nc2ccccc2)c1O
Result: 0.0

Problem: Moving on to O=C(c1cccc(Cl)c1)N1CCN(Cc2ccncc2)CC1
Result: 0.0

Problem: Continue with CCOc1ccc(-c2noc(-c3ccncc3)n2)cc1OCC
Result: 1.0

Problem: Input COCCCn1c2nc3ccccc3nc2c2c(=O)n(-c3ccccc3OC)cnc21
Result: 0.0

Problem: Likewise for COc1cc(C2c3c(oc4c(C)cc(C)cc4c3=O)C(=O)N2Cc2cccnc2)cc(OC)c1OC (stereo not drawn) ?
Result: 0.0

Problem: Same for COC(=O)c1c(N)n(-c2cc(OC)cc(OC)c2)c2nc3ccccc3nc12
Result: 0.0

Problem: Again, but for COc1cccc(OC)c1C(=O)n1nc(C)cc1C
Result: 0.0

Problem: // next record CCCCCn1c(CN(C)Cc2ccccc2)nc2c1c(=O)n(C)c(=O)n2C
Result: 0.0

Problem: Try Cc1ccc(-c2nnnn2CS(=O)(=O)c2ccccc2)cc1 next.
Result: 0.0

Problem: Param item: CC(C)(C)OC(=O)NC(CCNC=C1C(=O)OC(C)(C)OC1=O)C(=O)O (stereo not drawn)
Result: 0.0

Problem: Continue with Cc1cc(Cl)ccc1OCCCC(=O)N1CCOCC1
Result: 0.0

Problem: How about this molecule: Cc1nn(-c2ccc(F)cc2)c(C)c1NS(=O)(=O)c1ccc(Cl)cc1
Result: 0.0

Problem: How about this molecule: COc1ccc(NCc2nnc(SCC(=O)Nc3cc(C)cc(C)c3)o2)cc1
Result: 0.0

Problem: Try this molecule too: CNC(=O)CSc1nnc(-c2cc(C)cc(C)c2)o1
Result: 0.0

Problem: Next up: CCCCCC1NC(=O)NC1CCCCCC(=O)O (stereo not drawn)
Result: 0.0

Problem: Now consider N#CC1=C(N)SC(N)=C(C#N)C1CCc1ccccc1 and answer again.
Result: 0.0

Problem: Item: COc1ccc(C2=NOC(C(=O)NCc3ccc(F)cc3)C2)cc1OC (stereo not drawn)
Result: 0.0

Problem: Let us now turn to Cc1onc(-c2ccccc2)c1C(N)=O
Result: 0.0

Problem: And the next one, CCCn1c(SCC(=O)N2CCCc3ccccc32)nnc1-c1ccccn1 ?
Result: 0.0

Problem: Try the molecule COc1ccc(N2C(=O)C(Cl)=C(Nc3c(C)n(C)n(-c4ccccc4)c3=O)C2=O)cc1
Result: 0.0

Problem: Now the molecule CN(C)S(=O)(=O)c1ccc2c(c1)C(CC(=O)O)OC2=O (stereo not drawn)
Result: 0.0

Problem: Could you do the same for CCOc1ccc2[nH]c(=O)c(CN(CCOC)C(=O)N3CCOCC3)cc2c1 , please?
Result: 0.0

Problem: Can you handle COc1ccccc1-n1c(SCC(N)=O)nnc1-c1ccccc1 next?
Result: 0.0

Problem: What about Cc1cc(NC(=O)Cn2cnc3c(cnn3C(C)(C)C)c2=O)no1 ?
Result: 0.0

Problem: Next molecule up: COc1ccccc1OCc1ccc(C(=O)NC(C)(C)C)o1
Result: 0.0

Problem: // next record Cc1nc2ccccn2c1C(=O)NCCCN1CCOCC1
Result: 0.0

Problem: Could you do the same for CCn1nnnc1SCC(=O)Nc1nnc(C(C)C)s1 , please?
Result: 0.0

Problem: # iterate: Cc1cc(=O)oc2cc(Oc3ncccn3)ccc12
Result: 0.0
